- experiment: Cytotoxicity against HFF cells after 7 days
- Assay type: cell-based
- experimental.context: human
quantity.kind: CC50 at 168 h (µM)

CCCCCCCCCCCCCCCCCCOCCOP(=O)(O)CO[C@H](CO)Cn1cnc2c(N)ncnc21 ... 1.5
CCCCCCCCCCCCCCCCOCCCOP(=O)(O)CO[C@H](CO)Cn1ccc(N)nc1=O [BRINCIDOFOVIR] ... 31
CCCCCCCCCCCCCCCCOCCCOP(=O)(O)CO[C@H](CO)Cn1cnc2c(N)ncnc21 ... 9.7

----------
- experiment: Selectivity index, ratio of CC50 for HFF cells to EC50 for Vaccinia virus Copenhagen
- Type: toxicity, cell-based
- experimental.context: human, read-out: Ratio CC50/EC50
quantity.kind: selectivity ratio

CCCCCCCCCCCCCCCCOCCCOP(=O)(O)CO[C@H](CO)Cn1cnc2c(N)ncnc21 ... 970
CCCCCCCCCCCCCCCCOCCCOP(=O)(O)CO[C@H](CO)Cn1ccc(N)nc1=O [BRINCIDOFOVIR] ... 39
CCCCCCCCCCCCCCCCCCOCCOP(=O)(O)CO[C@H](CO)Cn1cnc2c(N)ncnc21 ... 150
